measured-parameter: melting point

Consider the reported melting point for these compounds:
compound	measurement
CCS(=O)(=O)c1ccccc1C(=O)O	49 to 53 °C
Nc1nnc(Cc2ccc(F)cc2)s1	170 to 172 °C
O=C(Cl)c1cc([N+](=O)[O-])ccc1Br	62 to 64 °C
O=C1CCCN1c1ccc(O)cc1	159 to 161 °C
CC(O)(C(=O)O)C1CC1 (configuration not stated)	39 to 41 °C
NC(=NO)c1ccc(N2CCCCC2)nc1	165 to 167 °C
N#CCOc1cccc(CC(=O)O)c1	79 to 81 °C
COc1cc(F)c(F)cc1[N+](=O)[O-]	54 to 56 °C
CC(N)C(=O)Nc1ccc(Cl)cc1 (configuration not stated)	84 to 86 °C
O=C(CCl)c1ccc(N2CCOC2=O)cc1	167 to 169 °C

State recorded melting point for all listed compounds.
1. COC(=O)c1c(CC(C)C)csc1N
2. CN(CC(=O)O)C(=O)c1ccsc1

Output line:
1. 66 to 68 °C
2. 56 to 57 °C

---

Field: melting point. Provide a value for each of the molecules that follow.

State recorded melting point for all listed molecules.
1. O=C(O)Cn1ccc2cc([N+](=O)[O-])ccc21
2. COc1cc(/C=C/C(=O)O)cc2c1OCCO2
3. CC(=O)c1ccc(C(F)(F)F)[nH]c1=O
4. Cc1ccc(-c2noc(CC#N)n2)cc1
5. O=C(O)CCOc1ccccc1Cl
6. CC(C)c1nonc1N

Output line:
["192 to 194 °C", "182 to 185 °C", "87 to 89 °C", "56 to 58 °C", "115 to 117 °C", "43 to 45 °C"]

---

Field: melting point. Provide a value for each of the compounds that follow.

compound	melting point
CCc1c(O)nc(S)n(-c2ccccc2OC)c1=O	160 to 162 °C
CC(C)(C)OC(=O)Nc1ccc(N)cn1	157 to 159 °C
CC(=O)NCCNC(=O)c1ccccc1N	128 to 130 °C

State recorded melting point for all listed compounds.
1. O=C(O)Cc1ccc(S(=O)(=O)Cl)cc1
2. COC(=O)C1CSCCC1=O (stereo unspecified)
3. O=c1c2ccccc2nc(O)n1-c1ccccc1

Output line:
1. 131 to 133 °C
2. 67 to 69 °C
3. 217 to 220 °C

---

measured-parameter: melting point

Consider the reported melting point for these compounds:
compound	melting point
N#CCc1cc(Cl)c2c(c1)OCCO2	102 to 104 °C
CCC(CC)NS(=O)(=O)c1ccc(Cl)nc1	91 to 93 °C
CCOC(=O)/C(C#N)=C\Nc1ccc(Cl)cc1F	154 to 156 °C

State recorded melting point for all listed compounds.
1. CN(C)CCOc1cc(C(=O)O)ccn1
2. Clc1nc(Cl)c2cn[nH]c2n1
3. Cc1cc(C)n2ncc(C(=O)NCC(=O)O)c2n1
4. CC(Cl)c1nc2ccccc2c(=O)[nH]1 (stereo not given)
5. CC(C)(C(=O)O)c1ccc(Cl)c(Cl)c1

Output line:
1: 173 to 175 °C; 2: 127 to 129 °C; 3: 244 to 246 °C; 4: 250 to 252 °C; 5: 94 to 96 °C

---

measured-parameter: melting point

Consider the reported melting point for these molecules:
molecule	melting point
Cc1cccc(C(=O)Nc2cccc(O)c2)n1	177 to 179 °C
CC1(C)CCCCC1=CC(=O)O	89 to 91 °C
O=Cc1ccc(-c2nc3ccccc3s2)o1	177 to 179 °C
O=C(CCl)Nc1ccc2c(c1)C(=O)c1ccccc1C2=O	298 to 300 °C
COC(=O)c1ccc(F)c(C)c1N	35 to 37 °C

State recorded melting point for all listed molecules.
1. O=S(=O)(Cl)c1ccc2nc(Cl)sc2c1
2. Cc1cc(-c2nnco2)ccc1[N+](=O)[O-]
3. C=CCNC(=O)c1ccc(Cl)nc1
4. Cc1nc(-c2ccccc2)oc1C(=O)O
5. O=c1oc2ccccc2c(Cl)c1[N+](=O)[O-]
6. NCCc1c[nH]c2cc(F)ccc12
7. Cc1ccc(N2C(=O)C=CC2=O)cc1
8. COc1ccc2c(c1)c(C(=O)O)c(C)n2C1CCCCC1

Output line:
["98 to 100 °C", "119 to 121 °C", "105 to 107 °C", "244 to 246 °C", "160 to 162 °C", "74 to 76 °C", "151 to 153 °C", "137 to 139 °C"]

State recorded melting point for all listed molecules.
1. O=c1[nH]cnc2cc(F)ccc12
2. O=C1CC(c2ccc(Cl)cc2)CC(=O)N1
3. NC(=O)Cn1c(S)nnc1-c1ccco1
4. COc1cccc(NC(=O)CCl)c1
5. COC(=O)c1c(CC(=O)O)[nH]c(C(C)=O)c1C
6. CNC1CCN(c2cc(OC)cc(OC)c2)C1=O (stereo unspecified)
7. O=S1(=O)CCC2(CC1)CO2

Output line:
1: 260 to 262 °C; 2: 152 to 154 °C; 3: 313 to 315 °C; 4: 73 to 75 °C; 5: 205 to 207 °C; 6: 73 to 75 °C; 7: 168 to 170 °C
